Measured IC50 accompanies every entry in the list below.
# assay_system: Human DYRK1B (Homo sapiens)
# Construct: purchased Invitrogen PR8350B (former PV4649)
# Sequence (Q9Y463 whole entry): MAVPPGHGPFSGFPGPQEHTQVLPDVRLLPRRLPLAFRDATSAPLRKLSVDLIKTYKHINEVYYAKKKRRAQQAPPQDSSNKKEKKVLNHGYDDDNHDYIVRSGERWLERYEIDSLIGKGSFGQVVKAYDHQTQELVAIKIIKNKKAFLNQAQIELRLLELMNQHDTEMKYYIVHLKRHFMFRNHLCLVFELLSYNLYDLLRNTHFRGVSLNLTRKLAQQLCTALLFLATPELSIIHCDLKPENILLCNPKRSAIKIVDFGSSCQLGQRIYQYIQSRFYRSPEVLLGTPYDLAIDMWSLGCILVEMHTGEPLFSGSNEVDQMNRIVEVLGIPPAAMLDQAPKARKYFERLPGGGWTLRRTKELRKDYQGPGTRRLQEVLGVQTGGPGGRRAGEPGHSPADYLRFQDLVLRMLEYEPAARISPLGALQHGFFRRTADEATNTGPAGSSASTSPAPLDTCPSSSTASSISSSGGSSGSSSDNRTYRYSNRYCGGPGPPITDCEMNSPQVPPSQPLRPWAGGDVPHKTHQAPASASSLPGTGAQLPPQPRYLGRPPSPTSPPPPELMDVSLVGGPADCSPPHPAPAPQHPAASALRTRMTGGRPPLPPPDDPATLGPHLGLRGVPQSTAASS
# run_description: DYRK1B Kinase TR-FRET (IMAP-Tb) Assay
# Type: biochemical
# conditions: Enzyme IC50 (μM) DYRK1B, TR-FRET (IMAP-Tb); ATP 70 μM; 37° C. 60 minutes
Where a name gives a salt, the structure may show the parent alone.

{"molecule": "COc1nc(C)c2cc(C(=O)Nc3cc(C(=O)NC(CCN)c4ccccc4)ccc3Cl)c(=O)[nH]c2n1 (stereo not drawn)", "IC50": "0.101 µM"}
{"molecule": "COc1ncc2cc(C(=O)Nc3cc(C(=O)N[C@@H](CCN)c4cccc(Cl)c4)ccc3Cl)c(=O)[nH]c2n1", "IC50": "2.55 µM"}
{"molecule": "COC(=O)c1ccc(Cl)c(NC(=O)c2cc3cnc(OC)nc3[nH]c2=O)c1", "IC50": "0.135 µM"}
{"molecule": "COc1ncc2cc(C(=O)Nc3cc(C(=O)NC(CCN)C4CCCCC4)ccc3Cl)c(=O)[nH]c2n1 (stereo not drawn) [Example 193, 2,2,2-trifluoroacetate]", "IC50": "0.615 µM"}
{"molecule": "COc1ncc2cc(C(=O)Nc3cc(C(=O)N(C)Cc4cccc(Cl)c4)ccc3Cl)c(=O)[nH]c2n1", "IC50": "0.586 µM"}
{"molecule": "COc1ncc2cc(C(=O)Nc3cc(C(=O)Nc4ccccc4)ccc3Cl)c(=O)[nH]c2n1", "IC50": "2.97 µM"}
{"molecule": "COc1ncc2cc(C(=O)Nc3cc(C(=O)NC(CCCCN)c4ccccc4)ccc3Cl)c(=O)[nH]c2n1 (stereo not drawn)", "IC50": "1.01 µM"}
{"molecule": "CN1CCN(CCNc2ncc3cc(C(=O)Nc4cc(C(=O)NC(CCN)c5ccccc5)ccc4Cl)c(=O)[nH]c3n2)CC1 (stereo not drawn) [Example 132, hydrochloride]", "IC50": "0.0306 µM"}
{"molecule": "CN1CCN(CCCNc2ncc3cc(C(=O)Nc4cc(C(=O)NC(CCN)c5ccccc5)ccc4Cl)c(=O)[nH]c3n2)CC1 (stereo not drawn) [Example 120]", "IC50": "< 0.0046 µM"}
{"molecule": "COc1ncc2cc(C(=O)Nc3cc(C(=O)NCCc4cccc(Cl)c4)ccc3Cl)c(=O)[nH]c2n1", "IC50": "0.135 µM"}
{"molecule": "COc1ncc2cc(C(=O)Nc3cc(C(=O)NCc4cccs4)ccc3Cl)c(=O)[nH]c2n1", "IC50": "0.096 µM"}
{"molecule": "Cc1ncc2cc(C(=O)Nc3cc(C(=O)NC(CCN)c4ccccc4)ccc3Cl)c(=O)[nH]c2n1 (stereo not drawn) [Example 112, hydrochloride]", "IC50": "0.018 µM"}
{"molecule": "COc1ncc2cc(C(=O)Nc3cc(C(N)=O)ccc3Cl)c(=O)[nH]c2n1", "IC50": "0.0749 µM"}
{"molecule": "Cc1ncc2cc(C(=O)Nc3cc(C(=O)N[C@H](CCN)c4ccccc4)ccc3Cl)c(=O)[nH]c2n1 [Example 168, hydrochloride]", "IC50": "< 0.0046 µM"}
{"molecule": "COc1ncc2cc(C(=O)Nc3cc(C(=O)NCc4ccccc4)ccc3Cl)c(=O)[nH]c2n1", "IC50": "0.048 µM"}
